- STUDY TARGET: hCB1 (Homo sapiens)
- Sequence (P21554 whole entry): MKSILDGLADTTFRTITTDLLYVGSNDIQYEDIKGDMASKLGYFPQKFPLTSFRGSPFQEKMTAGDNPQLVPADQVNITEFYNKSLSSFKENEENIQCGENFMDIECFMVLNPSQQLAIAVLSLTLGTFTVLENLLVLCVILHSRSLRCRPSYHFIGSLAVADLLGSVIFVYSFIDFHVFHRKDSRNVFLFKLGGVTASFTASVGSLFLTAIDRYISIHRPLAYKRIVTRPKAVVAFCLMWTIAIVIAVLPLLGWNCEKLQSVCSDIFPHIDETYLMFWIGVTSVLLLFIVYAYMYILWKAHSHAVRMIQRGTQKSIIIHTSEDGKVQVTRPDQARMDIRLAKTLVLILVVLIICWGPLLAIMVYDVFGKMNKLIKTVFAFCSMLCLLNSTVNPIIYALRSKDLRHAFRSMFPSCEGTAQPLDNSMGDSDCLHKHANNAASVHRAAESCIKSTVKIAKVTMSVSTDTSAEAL
- PROTOCOL TEXT: hCB1 GTPγS agonist assay (HEK-293 membranes)
- Type: biochemical
- STATED CONDITIONS: GTPγS agonist, HEK membranes; read-out: hCB1 EC50 (GTPyS ag, nM, HEK)
// reported EC50 per item
RECORDED METRIC: EC50

[[record]]
structure_smiles_string = "CCCn1c(C(=O)c2c(C)n(CCN3CCOCC3)c3sccc23)cc2ccccc21"
study_target = "hCB1 (Homo sapiens)"
recorded_metric = "EC50"
measurement = "100 to 1000 nM"

[[record]]
structure_smiles_string = "CCCn1c(C(=O)c2c(C)[nH]c3sccc23)cc2ccsc21"
study_target = "hCB1 (Homo sapiens)"
recorded_metric = "EC50"
measurement = "> 10000 nM"

[[record]]
structure_smiles_string = "CCn1c(C(=O)c2c3c(n(CC4CCOCC4)c2C)CCCC3)cc2ccsc21"
study_target = "hCB1 (Homo sapiens)"
recorded_metric = "EC50"
measurement = "100 to 1000 nM"

[[record]]
structure_smiles_string = "CCCn1c(C(=O)c2cn(CC)c3ccccc23)cc2ccsc21"
study_target = "hCB1 (Homo sapiens)"
recorded_metric = "EC50"
measurement = "100 to 1000 nM"

[[record]]
structure_smiles_string = "CCCn1c(C(=O)c2c(C)n(CCC)c3sccc23)cc2ccsc21"
study_target = "hCB1 (Homo sapiens)"
recorded_metric = "EC50"
measurement = "100 to 1000 nM"

[[record]]
structure_smiles_string = "CCn1c(C(=O)c2cn(CCCNS(C)(=O)=O)c3ccccc23)cc2ccsc21"
study_target = "hCB1 (Homo sapiens)"
recorded_metric = "EC50"
measurement = "1000 to 10000 nM"


====

// reported EC50 per item
- STUDY TARGET: UniProt P34972
- Sequence (P34972 whole entry): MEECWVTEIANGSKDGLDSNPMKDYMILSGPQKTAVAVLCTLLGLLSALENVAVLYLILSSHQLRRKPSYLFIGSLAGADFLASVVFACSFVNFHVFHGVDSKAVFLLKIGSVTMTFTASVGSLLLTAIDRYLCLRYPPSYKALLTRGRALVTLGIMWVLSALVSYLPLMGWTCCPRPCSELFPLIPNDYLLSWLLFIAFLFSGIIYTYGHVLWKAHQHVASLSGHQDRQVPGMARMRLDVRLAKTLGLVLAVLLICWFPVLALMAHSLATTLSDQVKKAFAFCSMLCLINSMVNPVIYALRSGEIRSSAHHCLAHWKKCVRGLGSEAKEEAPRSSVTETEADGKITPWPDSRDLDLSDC
- PROTOCOL TEXT: hCB2 GTPγS agonist assay (HEK-293 membranes)
- Type: biochemical
- STATED CONDITIONS: GTPγS agonist, HEK membranes; read-out: hCB2 EC50 (GTPyS ag, nM, HEK)
RECORDED METRIC: EC50

[[record]]
compound = "CCCn1c(C)c(C(=O)c2cc3ccsc3n2CC2CCOCC2)c2ccccc21 [Compound I-72]"
measurement = "100 to 1000 nM"

[[record]]
compound = "CCCn1c(C)c(C(=O)c2cc3ccsc3n2CC)c2c1CCC(C)(C)C2 [Compound I-65]"
measurement = "< 100 nM"

[[record]]
compound = "C=Cn1c(C)c(C(=O)c2cc3ccsc3n2CC)c2ccccc21 [Compound I-24]"
measurement = "100 to 1000 nM"

[[record]]
compound = "Cc1[nH]c2ccsc2c1C(=O)c1cccc2ccccc12 [Compound I-4]"
measurement = "1000 to 10000 nM"

[[record]]
compound = "CCCn1c(C)c(C(=O)c2cc3ccsc3n2CCC)c2c1CCC(C)(C)C2 [Compound I-35]"
measurement = "< 100 nM"

[[record]]
compound = "CCn1c(C(=O)c2c[nH]c3ccccc23)cc2ccsc21 [Compound I-37]"
measurement = "100 to 1000 nM"

[[record]]
compound = "CCn1c(C(=O)c2c(C)n(CCCNS(C)(=O)=O)c3ccccc23)cc2ccsc21 [Compound I-19]"
measurement = "< 100 nM"

[[record]]
compound = "CCCn1c(C)c(C(=O)c2cc3ccsc3n2CCC)c2c1CCCC2 [Compound I-77]"
measurement = "< 100 nM"

[[record]]
compound = "CCCn1c(C(=O)c2c[nH]c3ccccc23)cc2ccsc21 [Compound I-64]"
measurement = "100 to 1000 nM"


====

// reported IC50 per item
- STUDY TARGET: hCB1 (Homo sapiens)
- PROTOCOL TEXT: hCB1 radioligand binding assay ([3H]-CP 55,940 displacement)
- STATED CONDITIONS: hCB1 IC50 (CP displ, nM, HEK), HEK membranes
RECORDED METRIC: IC50

[[record]]
molecule = "CCCn1c(C(=O)c2c(C)n(CCN3CCOCC3)c3ccccc23)cc2ccsc21 [Compound I-73]"
measurement = "100 to 1000 nM"

[[record]]
molecule = "CCCn1c(C(=O)c2c(C)n(CCN3CCOCC3)c3sccc23)cc2ccccc21 [Compound I-11]"
measurement = "< 100 nM"

[[record]]
molecule = "CCCn1c(C)c(C(=O)c2c(C)[nH]c3sccc23)c2ccccc21 [Compound I-6]"
measurement = "> 10000 nM"

[[record]]
molecule = "CCCn1c(C)c(C(=O)c2cc3cc(Cl)sc3[nH]2)c2ccccc21 [Compound I-48]"
measurement = "1000 to 10000 nM"

[[record]]
molecule = "CCCn1cc(C(=O)c2cc3ccsc3n2CC)c2ccncc21 [Compound I-23]"
measurement = "1000 to 10000 nM"

[[record]]
molecule = "CCCn1c(C)c(C(=O)c2cc3ccsc3n2C)c2ccccc21 [Compound I-55]"
measurement = "> 10000 nM"

[[record]]
molecule = "CCCn1c(C)c(C(=O)c2cc3ccsc3n2CCC)c2cc(Cl)ccc21 [Compound I-52]"
measurement = "1000 to 10000 nM"

[[record]]
molecule = "CCCn1c(C)c(C(=O)c2cc3scnc3n2CC)c2ccccc21 [Compound I-31]"
measurement = "1000 to 10000 nM"

[[record]]
molecule = "CCCn1c(C)c(C(=O)c2cc3ccsc3n2CC)c2cccc(OC)c21 [Compound I-36]"
measurement = "100 to 1000 nM"

[[record]]
molecule = "CCCn1c(C(=O)c2c3c(n(CCN4CCOCC4)c2C)CCCC3)cc2ccsc21 [Compound I-79]"
measurement = "100 to 1000 nM"

[[record]]
molecule = "CCCn1c(C(=O)c2c(C)n(CCN3CCCCC3)c3ccccc23)cc2ccsc21 [Compound I-59]"
measurement = "100 to 1000 nM"

[[record]]
molecule = "Cc1c(C(=O)c2cccc3ccccc23)c2sccc2n1CCN1CCOCC1 [Compound I-1]"
measurement = "100 to 1000 nM"

[[record]]
molecule = "CCCn1c(C(=O)c2c(C)n(S(=O)(=O)CC)c3ccccc23)cc2ccsc21 [Compound I-67]"
measurement = "> 10000 nM"

[[record]]
molecule = "CCCn1c(C)c(C(=O)c2cc3ccsc3n2CCC)c2ccccc21 [Compound I-78]"
measurement = "1000 to 10000 nM"

[[record]]
molecule = "CCCn1c(C(=O)c2cn(CC3CCOCC3)c3ccccc23)cc2ccsc21 [Compound I-41]"
measurement = "< 100 nM"

[[record]]
molecule = "CCn1c(C(=O)c2c(C)n(CCC(=O)O)c3ccccc23)cc2ccsc21 [Compound I-27]"
measurement = "> 10000 nM"

[[record]]
molecule = "CCCn1c(C(=O)c2c(C)n(CC)c3ccccc23)cc2ccsc21 [Compound I-50]"
measurement = "1000 to 10000 nM"

[[record]]
molecule = "Cc1[nH]c2ccsc2c1C(=O)c1cccc2ccccc12 [Compound I-4]"
measurement = "> 10000 nM"

[[record]]
molecule = "CCCn1c(C(=O)c2c(C)n(CCC3CCOCC3)c3ccccc23)cc2ccsc21 [Compound I-57]"
measurement = "100 to 1000 nM"

[[record]]
molecule = "CCCn1c(C)c(C(=O)c2cc3cc(Cl)sc3n2CCC)c2ccccc21 [Compound I-49]"
measurement = "1000 to 10000 nM"

[[record]]
molecule = "CCCn1c(C)c(C(=O)c2cc3sccc3s2)c2ccccc21 [Compound I-20]"
measurement = "1000 to 10000 nM"

[[record]]
molecule = "CCCn1cc(C(=O)c2cc3ccsc3n2CCC)c2ccccc21 [Compound I-62]"
measurement = "< 100 nM"

[[record]]
molecule = "CCCn1c(C)c(C(=O)c2cc3ccsc3n2CCC)c2cc(C)ccc21 [Compound I-69]"
measurement = "1000 to 10000 nM"

[[record]]
molecule = "CCCn1c(C)c(C(=O)c2cccc3ccccc23)c2ccsc21 [Compound I-2]"
measurement = "1000 to 10000 nM"

[[record]]
molecule = "CCCn1c(C)c(C(=O)c2cc3ccsc3n2CC)c2ccccc21 [Compound I-54]"
measurement = "1000 to 10000 nM"

[[record]]
molecule = "CCCn1cc(C(=O)c2cc3ccsc3n2CC)c2cnccc21 [Compound I-22]"
measurement = "1000 to 10000 nM"

[[record]]
molecule = "CCn1c(C(=O)c2cn(CCCNS(C)(=O)=O)c3ccccc23)cc2ccsc21 [Compound I-28]"
measurement = "100 to 1000 nM"

[[record]]
molecule = "Cc1c(C(=O)c2cccc3ccccc23)c2ccsc2n1CCN1CCOCC1 [Compound I-5]"
measurement = "100 to 1000 nM"

[[record]]
molecule = "CCn1c(C(=O)c2cn(CC3CCOCC3)c3ccccc23)cc2ccsc21 [Compound I-16]"
measurement = "< 100 nM"

[[record]]
molecule = "CCn1c(C(=O)c2c(C)n(CC3CCOCC3)c3ccccc23)cc2ccsc21 [Compound I-17]"
measurement = "100 to 1000 nM"

[[record]]
molecule = "CCCn1c(C)c(C(=O)c2cc3ccsc3n2CC2CCOCC2)c2ccccc21 [Compound I-72]"
measurement = "100 to 1000 nM"

[[record]]
molecule = "CCCn1c(C(=O)c2cn(CC)c3ccccc23)cc2ccsc21 [Compound I-42]"
measurement = "< 100 nM"

[[record]]
molecule = "CCCCn1c(C)c(C(=O)c2cc3ccsc3n2CCC)c2ccccc21 [Compound I-58]"
measurement = "100 to 1000 nM"

[[record]]
molecule = "CCOC(=O)CCn1c(C)c(C(=O)c2cc3ccsc3n2CC)c2ccccc21 [Compound I-26]"
measurement = "> 10000 nM"

[[record]]
molecule = "CCCn1c(C(=O)c2c(C)n(CC3CCOCC3)c3ccccc23)cc2ccsc21 [Compound I-66]"
measurement = "100 to 1000 nM"

[[record]]
molecule = "CCCn1c(C)c(C(=O)c2cc3cc(C)n(CCC)c3s2)c2ccccc21 [Compound I-56]"
measurement = "1000 to 10000 nM"

